molecular target: T1, Her2 ECD (amino acids 1 to 629 of matured HER2 with C-terminal avi-tag and His-tag) (human, UniProt P04626 23-652); test: SPR, Fab from bacterial supernatant captured, Her2 analyte
T1 construct: also called purified Her2

{"columns": ["BINDER", "Kd, nM"],
 "data": [
  ["Pertuzumab aff.mat. clone D1 with common light chain (Fab, V domains shown, bacterial Fab with Flag-tag, from supernatant) VH: EVQLVESGGGLVQPGGSLRLSCAASGFTFNDYTMDWVRQAPGKGLEWVADVNPNSGGSIYNQRFKGRFTLSVDRSKNTLYLQMNSLRAEDTAVYYCARNLGPFFYFDYWGQGTLVTVSS VL: DIQMTQSPSSLSASVGDRVTITCKASQDVSTAVAWYQQKPGKAPKLLIYSASFRYTGVPSRFSGSRSGTDFTLTISSLQPEDFATYYCQQHYTTPPTFGQGTKVEIK", 1],
  ["Pertuzumab aff.mat. clone G2 with common light chain (Fab, V domains shown, bacterial Fab) VH: EVQLVESGGGLVQPGGSLRLSCAASGFTFTDYTMDWVRQAPGKGLEWVADVNPNSGGYIVNRRFKGRFTLSVDRSKNTLYLQMNSLRAEDTAVYYCARNLGPSFYFDYWGQGTLVTVSS VL: DIQMTQSPSSLSASVGDRVTITCKASQDVSTAVAWYQQKPGKAPKLLIYSASFRYTGVPSRFSGSRSGTDFTLTISSLQPEDFATYYCQQHYTTPPTFGQGTKVEIK", 1],
  ["Pertuzumab aff.mat. clone A1 with common light chain (Fab, V domains shown, bacterial Fab) VH: EVQLVESGGGLVQPGGSLRLSCAASGFTFTDYTMDWVRQAPGKGLEWVADVNPNSGGSIVNQRFKGRFTLSVDRSKNTLYLQMNSLRAEDTAVYYCARNLGPWFYFDYWGQGTLVTVSS VL: DIQMTQSPSSLSASVGDRVTITCKASQDVSTAVAWYQQKPGKAPKLLIYSASFRYTGVPSRFSGSRSGTDFTLTISSLQPEDFATYYCQQHYTTPPTFGQGTKVEIK", 1],
  ["Pertuzumab aff.mat. clone B2 with common light chain (Fab, V domains shown, bacterial Fab) VH: EVQLVESGGGLVQPGGSLRLSCAASGFTFNDYTMDWFRQAPGKGLEWVADVNPNSGGSIYNQRFKGRFTLSVDRSKNTLYLQMNSLRAEDTAVYYCARNLGPNFYFDYWGQGTLVTVSS VL: DIQMTQSPSSLSASVGDRVTITCKASQDVSTAVAWYQQKPGKAPKLLIYSASFRYTGVPSRFSGSRSGTDFTLTISSLQPEDFATYYCQQHYTTPPTFGQGTKVEIK", 1],
  ["Pertuzumab aff.mat. clone C8 with common light chain (Fab, V domains shown, bacterial Fab) VH: EVQLVESGGGLVQPGGSLRLSCAASGFTFTDYTMDWVRQAPGKGLEWVADVNPNSGGSIMNRRFKGRFTLSVDRSKNTLYLQMNSLRAEDTAVYYCARNLGPSFYFDYWGQGTLVTVSS VL: DIQMTQSPSSLSASVGDRVTITCKASQDVSTAVAWYQQKPGKAPKLLIYSASFRYTGVPSRFSGSRSGTDFTLTISSLQPEDFATYYCQQHYTTPPTFGQGTKVEIK", 3],
  ["Pertuzumab aff.mat. clone E1 with common light chain (Fab, V domains shown, bacterial Fab) VH: EVQLVESGGGLVQPGGSLRLSCAASGFTFADYTMDWVRQAPGKGLEWVADVNPNSGGSIYNQRFKGRFTLSVDRSKNTLYLQMNSLRAEDTAVYYCARNLGPWFYFDYWGQGTLVTVSS VL: DIQMTQSPSSLSASVGDRVTITCKASQDVSTAVAWYQQKPGKAPKLLIYSASFRYTGVPSRFSGSRSGTDFTLTISSLQPEDFATYYCQQHYTTPPTFGQGTKVEIK", 0.5]
]}
